- Test system: PPARg:RXRa (NR concentration 180 nM, RXRa partner concentration 90 nM)
- PROTOCOL NOTES: PBM binding z-score (relative to random genomic background probes); higher = stronger binding; sequences stand for … in GC…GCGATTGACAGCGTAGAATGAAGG
PBM binding z-score values by entry

SEQ TEXT: CCTACTGGGCCACGAAAGGGCATTGATTCAGTGA
PBM binding z-score: 1.78

SEQ TEXT: GCTGCTAGGTCAACTGATGGTGAGCTAAAGCTCG
PBM binding z-score: 2.57

SEQ TEXT: CGTTCAAGGTCATAGGAGGTCAGTGAAGACAGAT
PBM binding z-score: 6.82

SEQ TEXT: CCTTACGGGTCCCTGACAGGTTATAGCATTTGGA
PBM binding z-score: 0.112

SEQ TEXT: ATCGAAAGGGCGTGAGGTGAGTATACAGAAAGGC
PBM binding z-score: 0.822

SEQ TEXT: CCTACTGGGCCAACAAGGTCATTGATGCCGATAA
PBM binding z-score: 3.23

* * *

- Tested on: RARg homodimer (NR concentration 270 nM)
- PROTOCOL NOTES: PBM binding z-score (relative to random genomic background probes); higher = stronger binding; sequences stand for … in GC…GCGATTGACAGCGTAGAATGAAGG
Reported values of PBM binding z-score for individual entries

SEQ TEXT: CGCACTAGGTCAAAGGACAGTGAAAGGCGACGTA
PBM binding z-score: 4.5

SEQ TEXT: CCGAGTAGTTTACGAGGGGGCATTCAGTGCGAAT
PBM binding z-score: 1.48

SEQ TEXT: CAAACTAGGTCACCGGAAGGTCAAAGTTCGCATG
PBM binding z-score: 7.83

SEQ TEXT: ATCGAAAGGTCGTGACGTGAGTATACAGAAAGGC
PBM binding z-score: 3.53

SEQ TEXT: CGAACTAAGTCAAAGGACAGTGAAAGGCGACGTA
PBM binding z-score: 1.1

SEQ TEXT: GCTGCTAGGTCATGTTGGTCAGCTAACGGGTACG
PBM binding z-score: 4.33

* * *

- System: PPARg:RXRa DBDmut IVT, anti-RXR (DBD mutation: RXRa K156A/R161A, NR concentration 270 nM, RXRa partner concentration 90 nM)
- PROTOCOL NOTES: PBM binding z-score (relative to random genomic background probes); higher = stronger binding; sequences stand for … in GC…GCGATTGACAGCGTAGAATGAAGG
Rule: 1 (yes) for PBM binding z-score not less than 3, 0 (no) for anything less.

SEQ TEXT: ATATGTAGGTTACATCCGGGTCTTTCAGGCTATG
ASSIGNED CLASS: 1 (yes)

SEQ TEXT: CGTCCAAGGTCAGATAGGTCAGTGAATGCCGAGT
ASSIGNED CLASS: 0 (no)

SEQ TEXT: CGACCTAGGTCAAAGGACAGTGAAAGGCGACGTA
ASSIGNED CLASS: 1 (yes)

SEQ TEXT: CGAACTAGGTCACCAGGACAATGAAGAGGTTGGA
ASSIGNED CLASS: 1 (yes)

SEQ TEXT: TCTGCTGGGTCAACGATGGTCAGCTAATCTGCTA
ASSIGNED CLASS: 1 (yes)

SEQ TEXT: TCGAGTAGGTTACGGGCGCATTCAGGGATGAAGA
ASSIGNED CLASS: 0 (no)

* * *

- System: VDR:RXRa (NR concentration 270 nM, RXRa partner concentration 90 nM)
- PROTOCOL NOTES: PBM binding z-score (relative to random genomic background probes); higher = stronger binding; sequences stand for … in GC…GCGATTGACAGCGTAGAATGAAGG
Label scheme for PBM binding z-score: lower than 4 is -1, 4 and above is 1.

SEQ TEXT: CAAACTAGGTCAAAGGTCAAAGACGAGCCAACCA
ASSIGNED CLASS: 1
//
SEQ TEXT: CCGAGTAGGTTACGAGGCGGCATTCAGTGCGAAT
ASSIGNED CLASS: -1
//
SEQ TEXT: ATATGTAGCTTAGGGTCATTCAGAAAGTAGGGAA
ASSIGNED CLASS: 1
//
SEQ TEXT: ATATGTAGGTTAGGGTCATCCAGAAAGTAGGGAA
ASSIGNED CLASS: 1
//
SEQ TEXT: GATACAGGGTGAGCTAGAGGCCAGAGTATGGAAA
ASSIGNED CLASS: -1
//
SEQ TEXT: CCTACTGGGCCAAAAATGTCATTGATGCCGATAA
ASSIGNED CLASS: -1
//
SEQ TEXT: ACTAACAGGCCAAGGGTCACTCAAGATTAGTCCG
ASSIGNED CLASS: -1
//
SEQ TEXT: CCGAGTAGGTTACGAGGGGGCATTCACTGCGAAT
ASSIGNED CLASS: 1
//
SEQ TEXT: CCTACTGGGCCAAAGGTCATAGATTCCAATGCTC
ASSIGNED CLASS: 1
//
SEQ TEXT: CGTCAAAGTTCAAGGCAACGTAACAGAAAGCAGC
ASSIGNED CLASS: -1
//
SEQ TEXT: CGAACTAGGTCACCAGGACAGTTAAGAGGTTGGA
ASSIGNED CLASS: -1
//
SEQ TEXT: CTCGAAAGGTCGGTTGAGGTGACTATACGGATAA
ASSIGNED CLASS: -1
//
SEQ TEXT: CGTCCAAGGTCATAAGAGGTCAGTGAAGACAGAT
ASSIGNED CLASS: 1
//
SEQ TEXT: CAACCTAGGTCACCGGAAGGTCAAAGTCCGCATG
ASSIGNED CLASS: 1
//
SEQ TEXT: GCTGCTAGGTCAACTGAGGGTCAGCTAAAGCTCG
ASSIGNED CLASS: 1
//
SEQ TEXT: TCATATAGGTTAAGGTGAAAGTCGAACGATATGA
ASSIGNED CLASS: -1
//
SEQ TEXT: CAAACTAGGTCACGAAAGGGCAAAGTCGAATGAC
ASSIGNED CLASS: 1
//
SEQ TEXT: CCGAGTAGGTTGCGAGGGGGCATTCAGTGCGAAT
ASSIGNED CLASS: 1
//
SEQ TEXT: GCTGCTAGGTCAACTGAAGGTCAGCTAAAGCTCG
ASSIGNED CLASS: 1
//
SEQ TEXT: TCGAGTTGGTTACGGGGGCATTCAGGGATGAAGA
ASSIGNED CLASS: -1
//
SEQ TEXT: ACTAGAAGGCCAAGGGTCACTCAAGATTAGTCCG
ASSIGNED CLASS: -1
//
SEQ TEXT: AGCGAAAGGTCGAAGGTGAGTATACCCACCCGAA
ASSIGNED CLASS: -1
//
SEQ TEXT: ATCGAAAAGTCGAAGGTGAGTATACCCACCCGAA
ASSIGNED CLASS: -1

* * *

- Test system: RARg:RXRa (NR concentration 270 nM, RXRa partner concentration 90 nM)
- PROTOCOL NOTES: PBM binding z-score (relative to random genomic background probes); higher = stronger binding; sequences stand for … in GC…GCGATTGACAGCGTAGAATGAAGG

SEQ TEXT: CGAACTAGATCACCAGGACAGTGAAGAGGTTGGA
ASSAY SYSTEM: RARg:RXRa (NR concentration 270 nM, RXRa partner concentration 90 nM)
PBM binding z-score: -0.13
//
SEQ TEXT: TAGCCTAGGTCATAGGGCCAGTATAGTACGCATC
ASSAY SYSTEM: RARg:RXRa (NR concentration 270 nM, RXRa partner concentration 90 nM)
PBM binding z-score: 3.86
//
SEQ TEXT: ATATGTGGGTTATCGGGTCATTCAGTTTGCGCAT
ASSAY SYSTEM: RARg:RXRa (NR concentration 270 nM, RXRa partner concentration 90 nM)
PBM binding z-score: 2.99
//
SEQ TEXT: CCGAGTAGGTCACGAGGGGGCATTCAGTGCGAAT
ASSAY SYSTEM: RARg:RXRa (NR concentration 270 nM, RXRa partner concentration 90 nM)
PBM binding z-score: 6.3
//
SEQ TEXT: CGAACTAGGTCAAAGGATAGTGAAAGGCGACGTA
ASSAY SYSTEM: RARg:RXRa (NR concentration 270 nM, RXRa partner concentration 90 nM)
PBM binding z-score: 3.47
//
SEQ TEXT: CGTCAAAGTTCAACTAAGGTAACGTATAGCACGC
ASSAY SYSTEM: RARg:RXRa (NR concentration 270 nM, RXRa partner concentration 90 nM)
PBM binding z-score: 5.92

* * *

- Test system: RXRa homodimer (NR concentration 180 nM)
- PROTOCOL NOTES: PBM binding z-score (relative to random genomic background probes); higher = stronger binding; sequences stand for … in GC…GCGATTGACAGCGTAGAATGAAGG
Decide using PBM binding z-score: a value greater than or equal to 4 is YES, a smaller one is NO.

SEQ TEXT: CCTAGTGGGCCAAAGGTCATTGATTCCAATGCTC
ASSIGNED CLASS: YES
--
SEQ TEXT: CCTAGTGGGTCAGGAGGTCACACACCGGATATGA
ASSIGNED CLASS: YES
--
SEQ TEXT: TTACCAAGGTCAGCTGAGGTCGTTGATCCAACTC
ASSIGNED CLASS: YES
--
SEQ TEXT: CCTTACGGGTCACTTACAGGTTATAGCATTTGGA
ASSIGNED CLASS: YES
--
SEQ TEXT: GCTTCCGGGTCAAAGGTTATAGCATGAATAGAAT
ASSIGNED CLASS: YES
--
SEQ TEXT: CTATGTAGGGTAAGGGGGTCATTCAGTTTGAAAG
ASSIGNED CLASS: YES
--
SEQ TEXT: AGTCAAATTTCACTAGGTAACGTAAGATTCAGCT
ASSIGNED CLASS: NO
--
SEQ TEXT: CCTTACAGGTCAAGGTTATAGCACGGGTGGTACG
ASSIGNED CLASS: YES
--
SEQ TEXT: CTATATAGGTTAAGGGGGTCATTCAGTTTGAAAG
ASSIGNED CLASS: YES
--
SEQ TEXT: TAGCCTAGGTCATTCAGGGGCCAGTATGGAAAGC
ASSIGNED CLASS: NO
--
SEQ TEXT: CGTCCAAGGTCAACAGGTCAGTGAAAGCGACGTG
ASSIGNED CLASS: YES
--
SEQ TEXT: CGAACTAGGTCACCAGGACCGTGAAGAGGTTGGA
ASSIGNED CLASS: NO
--
SEQ TEXT: CAAACTAGGTCAAAGGTCAGAGTCGAGCCAACCA
ASSIGNED CLASS: YES
--
SEQ TEXT: TCATATAGGTTAAAGGTGAAAGTCGGTGTGGTAA
ASSIGNED CLASS: YES
--
SEQ TEXT: AGTCATAGTTCACTAGGTAACGTAAGATTCAGCT
ASSIGNED CLASS: NO
--
SEQ TEXT: CGAACTAGGTGATTGACAGGACAGTGAATAGTAA
ASSIGNED CLASS: NO
--
SEQ TEXT: CAAACTAGGTCACGAGGTCAAAGTCCGCTTCCCG
ASSIGNED CLASS: YES
--
SEQ TEXT: CTTTACGGGTCAAGGTTATAGCACGGGTGGTACG
ASSIGNED CLASS: YES
--
SEQ TEXT: CATACAGGGTCATCTAGGCCAGAGTAGGGACGGC
ASSIGNED CLASS: YES
--
SEQ TEXT: CCTAGTTGGTCAAGGTAACACACGCTATAGGTAC
ASSIGNED CLASS: NO
--
SEQ TEXT: TCGAGTAGGTTACGGGGGCCTTCAGGGATGAAGA
ASSIGNED CLASS: NO
--
SEQ TEXT: TAGCCTCGGTCATTCAGGGGCCAGTATAGAAAGC
ASSIGNED CLASS: NO
--
SEQ TEXT: ATCGAAAGGTCGAGGAGGTGAGTATACACCGTTT
ASSIGNED CLASS: YES
--
SEQ TEXT: TAGCCTAGGTCATTGGGCTAGTATAGTACGCATC
ASSIGNED CLASS: NO
--
SEQ TEXT: CAAACTAGGTCAAAGGTCAAACTCGAGCCAACCA
ASSIGNED CLASS: YES
--
SEQ TEXT: TCTAGTTCGTCACGGAGGTCACACACGACGGGTA
ASSIGNED CLASS: YES
